target system: 5-hydroxytryptamine receptor 4 (Homo sapiens, UniProt Q13639)
Sequence (Q13639 whole entry): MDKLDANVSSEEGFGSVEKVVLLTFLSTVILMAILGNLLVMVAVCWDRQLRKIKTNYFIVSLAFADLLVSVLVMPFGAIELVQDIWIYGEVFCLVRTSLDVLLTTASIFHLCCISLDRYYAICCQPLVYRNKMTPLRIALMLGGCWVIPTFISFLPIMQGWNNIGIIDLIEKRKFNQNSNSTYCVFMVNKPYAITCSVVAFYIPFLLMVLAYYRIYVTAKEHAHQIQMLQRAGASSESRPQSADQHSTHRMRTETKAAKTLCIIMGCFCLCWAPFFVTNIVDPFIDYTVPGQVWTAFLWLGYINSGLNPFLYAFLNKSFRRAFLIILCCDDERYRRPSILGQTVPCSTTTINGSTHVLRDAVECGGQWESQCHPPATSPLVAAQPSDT
assay text: Antagonist activity at human 5HT4B receptor expressed in HEK293 cells assessed as inhibition of 5HT-stimulated adenylyl cyclase activity
Type: functional, cell-based
quantity: pKb
Hey, just send me the number, nothing else.

Some compounds with recorded pKb:
>  <test smiles>
COC(=O)c1ccccc1-c1ccc(CN2CCC(COC(=O)c3c4n(c5ccccc35)CCCO4)CC2)cc1.CS(=O)(=O)O

>  <pKb>
10.6

$$$$
>  <test smiles>
CS(=O)(=O)O.O=C(O)c1ccccc1-c1ccc(CN2CCC(COC(=O)c3c4n(c5ccccc35)CCCO4)CC2)cc1

>  <pKb>
9.8

$$$$
>  <test smiles>
CCCCN1CCC(CNC(=O)c2c3n(c4ccccc24)CCCO3)CC1

>  <pKb>
9.5

$$$$

Just so you know, measured pKb for `Cn1cc(C(=O)OCC2CCN(CCNS(C)(=O)=O)CC2)c2ccccc21` came out at 8.7

Just so you know, measured pKb for `O=C(OCC1CCN(Cc2ccc(-c3ccccc3-c3nnn[nH]3)cc2)CC1)c1c2n(c3ccccc13)CCCO2` came out at 10.6

Just so you know, measured pKb for `O=C(NCC1CCN(Cc2ccc(-c3ccccc3-c3nnn[nH]3)cc2)CC1)c1c2n(c3ccccc13)CCCO2` came out at 9.7

---

assay text: Apparent permeability of the compound in human Caco2 cells at 1 uM
Format: ADME, cell-based
run parameters: Caco-2
Please use class 1 for Papp at 1 µM under 3 ×10⁻⁶ cm/s and class 0 for everything else, ties included.

Challenge: # check: Papp at 1 µM < 3 ×10⁻⁶ cm/s for `O=C(OCC1CCN(Cc2ccc(-c3ccccc3-c3nn[nH]n3)cc2)CC1)c1c2n(c3ccccc13)CCCO2`
Response given: class 1

Challenge: # check: Papp at 1 µM < 3 ×10⁻⁶ cm/s for `CCCCOC(=O)c1ccccc1-c1ccc(CN2CCC(COC(=O)c3c4n(c5ccccc35)CCCO4)CC2)cc1.CS(=O)(=O)O`
Response given: class 0

Challenge: # check: Papp at 1 µM < 3 ×10⁻⁶ cm/s for `Cl.O=C(OCc1ccccc1)c1ccccc1-c1ccc(CN2CCC(COC(=O)c3c4n(c5ccccc35)CCCO4)CC2)cc1`
Response given: class 1

Challenge: # check: Papp at 1 µM < 3 ×10⁻⁶ cm/s for `CC(C)(C)C(=O)OCn1nnc(-c2ccccc2-c2ccc(CN3CCC(COC(=O)c4c5n(c6ccccc46)CCCO5)CC3)cc2)n1.CS(=O)(=O)O`
Response given: class 0

Challenge: # check: Papp at 1 µM < 3 ×10⁻⁶ cm/s for `COC(=O)c1ccccc1-c1ccc(CN2CCC(COC(=O)c3c4n(c5ccccc35)CCCO4)CC2)cc1.CS(=O)(=O)O`
Response given: class 0

Challenge: # check: Papp at 1 µM < 3 ×10⁻⁶ cm/s for `CS(=O)(=O)O.Cc1oc(=O)oc1COC(=O)c1ccccc1-c1ccc(CN2CCC(COC(=O)c3c4n(c5ccccc35)CCCO4)CC2)cc1`
Response given: class 0

Challenge: # check: Papp at 1 µM < 3 ×10⁻⁶ cm/s for `CS(=O)(=O)O.O=C(O)c1ccccc1-c1ccc(CN2CCC(COC(=O)c3c4n(c5ccccc35)CCCO4)CC2)cc1`
Response given: class 1

---

target system: Voltage-gated inwardly rectifying potassium channel KCNH2 (Homo sapiens, UniProt Q12809)
Sequence (Q12809 whole entry): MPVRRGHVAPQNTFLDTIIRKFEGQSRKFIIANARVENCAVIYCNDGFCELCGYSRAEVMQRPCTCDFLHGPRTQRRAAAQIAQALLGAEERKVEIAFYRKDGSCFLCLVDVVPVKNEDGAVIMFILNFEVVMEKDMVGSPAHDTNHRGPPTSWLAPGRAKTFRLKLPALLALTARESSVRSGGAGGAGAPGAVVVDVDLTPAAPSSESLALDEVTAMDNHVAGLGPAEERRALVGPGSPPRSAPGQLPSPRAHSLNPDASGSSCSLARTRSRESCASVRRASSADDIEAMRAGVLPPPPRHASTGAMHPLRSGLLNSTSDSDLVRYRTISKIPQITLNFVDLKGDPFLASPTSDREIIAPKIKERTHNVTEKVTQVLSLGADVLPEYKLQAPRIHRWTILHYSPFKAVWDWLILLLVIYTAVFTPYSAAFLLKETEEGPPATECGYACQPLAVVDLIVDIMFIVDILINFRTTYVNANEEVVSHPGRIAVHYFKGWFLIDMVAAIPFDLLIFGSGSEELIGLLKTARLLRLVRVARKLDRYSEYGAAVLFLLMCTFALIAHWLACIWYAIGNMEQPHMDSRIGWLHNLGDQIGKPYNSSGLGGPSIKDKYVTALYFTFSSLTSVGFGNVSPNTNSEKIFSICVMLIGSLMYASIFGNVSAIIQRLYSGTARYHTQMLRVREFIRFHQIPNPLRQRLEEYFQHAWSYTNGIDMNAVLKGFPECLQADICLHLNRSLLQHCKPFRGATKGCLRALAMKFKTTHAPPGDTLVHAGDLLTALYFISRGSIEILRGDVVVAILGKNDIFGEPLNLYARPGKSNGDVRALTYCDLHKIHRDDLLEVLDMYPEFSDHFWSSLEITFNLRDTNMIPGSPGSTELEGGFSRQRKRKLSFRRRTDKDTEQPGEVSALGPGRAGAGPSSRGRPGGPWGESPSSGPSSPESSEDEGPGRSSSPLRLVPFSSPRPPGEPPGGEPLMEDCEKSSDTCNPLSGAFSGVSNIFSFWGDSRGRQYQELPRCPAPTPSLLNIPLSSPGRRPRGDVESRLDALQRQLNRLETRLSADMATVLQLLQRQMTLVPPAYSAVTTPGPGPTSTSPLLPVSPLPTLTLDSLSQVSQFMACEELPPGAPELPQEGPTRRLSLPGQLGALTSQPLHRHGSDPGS
assay text: Inhibition of human ERG expressed in HEK293 cells by patch-clamp technique
Listed next: entries and their corresponding IC50.
Report the value in µM with no unit label.

Some compounds with recorded IC50:
>  <test smiles>
COC(=O)c1ccccc1-c1ccc(CN2CCC(COC(=O)c3c4n(c5ccccc35)CCCO4)CC2)cc1.CS(=O)(=O)O

>  <IC50 / µM>
0.131

$$$$
>  <test smiles>
CS(=O)(=O)O.O=C(O)c1ccccc1-c1ccc(CN2CCC(COC(=O)c3c4n(c5ccccc35)CCCO4)CC2)cc1

>  <IC50 / µM>
47.5

$$$$

Just so you know, measured IC50 for `O=C(OCC1CCN(Cc2ccc(-c3ccccc3-c3nn[nH]n3)cc2)CC1)c1c2n(c3ccccc13)CCCO2` came out at 27.5

---

// 5-hydroxytryptamine receptor 4 (Cavia porcellus, UniProt O70528) Ki records
Report the value in nM with no unit label.

Some compounds with recorded Ki:
>  <compound>
CC(O)CCN1CCC(CNC(=O)c2c3n(c4ccccc24)CCCO3)CC1 (centres undefined)

>  <Ki / nM>
0.794

$$$$
>  <compound>
CCCCN1CCC(CNC(=O)c2c3n(c4ccccc24)CCCO3)CC1

>  <Ki / nM>
1.58

$$$$
>  <compound>
O=C(NCC1CCNCC1)c1c2n(c3ccccc13)CCCO2

>  <Ki / nM>
63.1

$$$$

Just so you know, measured Ki for `CCCCN1CCC(CNC(=O)c2c3n(c4cc(O)ccc24)CCCO3)CC1` came out at 794

---

assay text: Cmax in Sprague-Dawley rat at 10 mg/kg, po
Format: ADME, organism-based
Set-up: dose 10 mg/kg, route oral
run parameters: in vivo
quantity: Cmax (ng/mL)
Report the value in ng/mL with no unit label.

>  <test smiles>
COC(=O)c1ccccc1-c1ccc(CN2CCC(COC(=O)c3c4n(c5ccccc35)CCCO4)CC2)cc1.CS(=O)(=O)O

>  <readout unit>
ng/mL

>  <readout number>
244

$$$$

Please examine the following record next.
Just so you know, measured Cmax for `CCCCOC(=O)c1ccccc1-c1ccc(CN2CCC(COC(=O)c3c4n(c5ccccc35)CCCO4)CC2)cc1.CS(=O)(=O)O` came out at 80

---

Listed next: entries and their corresponding pKb.
target system: 5-hydroxytryptamine receptor 4 (Rattus norvegicus) (UniProt Q62758)
Sequence (Q62758 whole entry): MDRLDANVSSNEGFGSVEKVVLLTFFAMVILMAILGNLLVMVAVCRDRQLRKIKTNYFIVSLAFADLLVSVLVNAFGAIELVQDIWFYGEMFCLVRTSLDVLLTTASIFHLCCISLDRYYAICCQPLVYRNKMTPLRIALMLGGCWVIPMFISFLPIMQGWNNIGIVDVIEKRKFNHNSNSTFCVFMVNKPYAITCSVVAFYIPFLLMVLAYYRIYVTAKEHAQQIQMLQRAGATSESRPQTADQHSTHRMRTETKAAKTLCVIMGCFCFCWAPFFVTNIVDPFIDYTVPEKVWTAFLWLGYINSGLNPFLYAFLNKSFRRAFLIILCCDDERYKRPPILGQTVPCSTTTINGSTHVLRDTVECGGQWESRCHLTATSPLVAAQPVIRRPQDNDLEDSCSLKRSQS
assay text: Antagonist activity at 5-HT4 receptor in rat carbachol-contracted esophagus muscularis mucosae assessed as inhibition of 5-HT-induced relaxation
Hey, just send me the number, nothing else.

>  <test smiles>
CCCCN1CCC(CCC(=O)c2cc(Cl)c(N)c3c2OCCO3)CC1

>  <target system>
5-hydroxytryptamine receptor 4 (Rattus norvegicus) (UniProt Q62758)

>  <readout number>
9.9

$$$$
>  <test smiles>
CS(=O)(=O)NCCN1CCC(CCC(=O)c2cc(Cl)c(N)c3c2OCCO3)CC1

>  <target system>
5-hydroxytryptamine receptor 4 (Rattus norvegicus) (UniProt Q62758)

>  <readout number>
9.9

$$$$
>  <test smiles>
COc1ccc(CCCN2CCC(CCC(=O)c3cc(Cl)c(N)c4c3OCCO4)CC2)cc1

>  <target system>
5-hydroxytryptamine receptor 4 (Rattus norvegicus) (UniProt Q62758)

>  <readout number>
10.6

$$$$

Please examine the following record next.
Note to self: pKb of `Nc1c(Cl)cc(C(=O)CCC2CCN(CCCc3ccccc3)CC2)c2c1OCCO2` with 5-hydroxytryptamine receptor 4 (Rattus norvegicus) (UniProt Q62758) was 9.6

---

assay text: AUC (0 to 6 hrs) in Sprague-Dawley rat at 10 mg/kg, po
Format: ADME, organism-based
Set-up: time < 6 hr, dose 10 mg/kg, route oral
run parameters: plasma
Listed next: entries and their corresponding AUC(0-t) at 6 h.
Report the value in ng·h/mL with no unit label.

>  <test smiles>
CCCCOC(=O)c1ccccc1-c1ccc(CN2CCC(COC(=O)c3c4n(c5ccccc35)CCCO4)CC2)cc1.CS(=O)(=O)O

>  <quantity>
AUC(0-t) at 6 h

>  <readout number>
313

$$$$

Just so you know, measured AUC(0-t) at 6 h for `COC(=O)c1ccccc1-c1ccc(CN2CCC(COC(=O)c3c4n(c5ccccc35)CCCO4)CC2)cc1.CS(=O)(=O)O` came out at 1110

---

target system: 5-hydroxytryptamine receptor 4 (Homo sapiens)
assay text: Displacement of [125I]SB207710 from human recombinant 5-HT4 receptor
Listed next: entries and their corresponding Ki.
Report the value in nM with no unit label.

Some compounds with recorded Ki:
>  <compound>
O=C(NCC1CCNCC1)c1c2n(c3ccccc13)CCCO2

>  <target system>
5-hydroxytryptamine receptor 4 (Homo sapiens)

>  <Ki (nM)>
63.1

$$$$
>  <compound>
CCCCN1CCC(CNC(=O)c2c3n(c4cc(O)ccc24)CCCO3)CC1

>  <target system>
5-hydroxytryptamine receptor 4 (Homo sapiens)

>  <Ki (nM)>
794

$$$$
>  <compound>
CC(O)CCN1CCC(CNC(=O)c2c3n(c4ccccc24)CCCO3)CC1 (centres undefined)

>  <target system>
5-hydroxytryptamine receptor 4 (Homo sapiens)

>  <Ki (nM)>
0.794

$$$$

Just so you know, measured Ki for `CCCCN1CCC(CNC(=O)c2c3n(c4ccccc24)CCCO3)CC1` came out at 1.58

---

Tested on: 3T3-L1
assay text: Cytotoxicity against mouse 3T3L1 cells assessed as cell death at 5 ug/ml after 72 hrs by neutral red assay
Type: cell-based
run parameters: 3t3-l1, 72 h
quantity: Activity (%)
Report the value in % with no unit label.

>  <test smiles>
CS(=O)(=O)O.O=C(O)c1ccccc1-c1ccc(CN2CCC(COC(=O)c3c4n(c5ccccc35)CCCO4)CC2)cc1

>  <target system>
3T3-L1

>  <quantity>
Activity

>  <readout number>
14

$$$$

Just so you know, measured Activity for `COC(=O)c1ccccc1-c1ccc(CN2CCC(COC(=O)c3c4n(c5ccccc35)CCCO4)CC2)cc1.CS(=O)(=O)O` came out at 75

Just so you know, measured Activity for `O=C(OCC1CCN(Cc2ccc(-c3ccccc3-c3nn[nH]n3)cc2)CC1)c1c2n(c3ccccc13)CCCO2` came out at 0

Just so you know, measured Activity for `O=C(NCC1CCN(Cc2ccc(-c3ccccc3-c3nnn[nH]3)cc2)CC1)c1c2n(c3ccccc13)CCCO2` came out at 0
